Molecular target: PARP7 (Homo sapiens)
Construct: purchased BPS 80527
Sequence (Q7Z3E1 1-657): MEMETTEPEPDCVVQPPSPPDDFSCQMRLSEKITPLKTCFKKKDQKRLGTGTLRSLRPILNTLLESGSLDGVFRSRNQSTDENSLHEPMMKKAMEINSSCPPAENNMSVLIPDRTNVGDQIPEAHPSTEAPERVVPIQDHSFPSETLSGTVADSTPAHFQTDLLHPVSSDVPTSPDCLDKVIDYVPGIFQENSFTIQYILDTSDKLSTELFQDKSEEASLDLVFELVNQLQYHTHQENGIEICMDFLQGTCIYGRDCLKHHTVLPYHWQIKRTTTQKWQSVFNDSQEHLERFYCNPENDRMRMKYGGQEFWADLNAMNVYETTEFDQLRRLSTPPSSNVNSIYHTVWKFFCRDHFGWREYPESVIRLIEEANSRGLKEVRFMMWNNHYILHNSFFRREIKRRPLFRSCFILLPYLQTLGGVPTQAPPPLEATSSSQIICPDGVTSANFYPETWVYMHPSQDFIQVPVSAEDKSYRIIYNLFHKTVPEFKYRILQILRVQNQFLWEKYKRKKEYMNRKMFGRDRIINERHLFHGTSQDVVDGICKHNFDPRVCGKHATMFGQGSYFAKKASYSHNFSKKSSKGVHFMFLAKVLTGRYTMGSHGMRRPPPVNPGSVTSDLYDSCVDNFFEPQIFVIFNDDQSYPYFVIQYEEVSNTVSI
Experiment: Inhibition of the compound on PARP7 protein activity (ADP-ribosylation, chemiluminescence)
Type: biochemical
Details: Histone H1 coated plate, Biotin-Labeled NAD+, 2 h at room temperature, chemiluminescence; read-out: PARP7 activity inhibition IC50
IC50 values by entry

// below: answered molecules
CC(CCCNC(=O)c1ccc(-c2cc(C(F)(F)F)sn2)nc1)Nc1cn[nH]c(=O)c1C(F)(F)F (stereo not shown) [Example 207]; < 3 nM
CC(CCCNC(=O)c1ccc(-c2nnc(C(F)(F)F)s2)cc1)Nc1cn[nH]c(=O)c1C(F)(F)F (stereo not shown) [Example 82]; 3 to 10 nM
CC(CCCNC(=O)c1ccc(-c2nn(C)cc2F)cc1)Nc1cn[nH]c(=O)c1C(F)(F)F (stereo not shown) [Example 192]; 3 to 10 nM
CC(CCCNC(=O)c1cnc(-c2ncc(C(F)(F)F)cn2)cn1)Oc1cn[nH]c(=O)c1C(F)(F)F (stereo not shown) [Example 51]; < 3 nM
CC(CCCNC(=O)c1ccc(-c2ncc(C#N)cc2F)cc1)Nc1cn[nH]c(=O)c1C(F)(F)F (stereo not shown) [Example 67]; < 3 nM

So what's the measured IC50 for this one? COc1cnc(-c2ccc(C(=O)NCCCC(C)Nc3cn[nH]c(=O)c3C(F)(F)F)cc2)s1 (stereo not shown) [Example 22]
< 3 nM

Please do the same for CC(CCCNC(=O)c1cc(-c2ncc(C(F)(F)F)cn2)on1)Nc1cn[nH]c(=O)c1C(F)(F)F (stereo not shown) [Example 39] as well.
< 3 nM
